# Tested on: MDA-MB-468
# assay_info: Cell viability (SRB), inhibition of cell proliferation
# Format: cell-based
# study_conditions: Homo sapiens, 24 hours, range given for 3 out of 4 lines analyzed
pIC50: −log10 of the molar value.
measurement_kind: pIC50

Req: # get_value(readout='pIC50', item= COC(=O)C[C@](O)(CCCC(C)(C)O)C(=O)O[C@@H]1C(OC)=C[C@]23CCCN2CCc2cc4c(cc2[C@H]13)OCO4 [HHT, homoharringtonine] )
Resp: 7.67 to 7.80
